// reported % Inhibition for each item listed
# Test system: P. falciparum stage V gametocytes
# Design: BacTiter-Glo ATP luminescence viability of purified stage V gametocytes in 384-well plates, per cent inhibition versus DMSO
# Test Parameters: 48 h, 5 µM; inhibitor
Out of some 13,000 compounds screened, about 3,200 (25%) showed an effect of 50% or more. The list shows a part of the results.
Property: % Inhibition (%)

[[record]]
structure = "CC(C)NCc1ccc(OCc2cccc(COc3ccc(CNC(C)C)cc3I)c2)c(I)c1"
unit_string = "%"
data_value = 114.3

[[record]]
structure = "COc1ccc(CNC(=O)c2cc3c(=O)n4ccccc4nc3n(CCc3ccccc3)c2=N)cc1"
unit_string = "%"
data_value = -41.5

[[record]]
structure = "CC(C)NCc1cccc(-c2cccc(-c3nc4ccccc4[nH]3)c2)c1"
unit_string = "%"
data_value = 37.6


###

# Test system: P. falciparum stage V gametocytes
# Design: BacTiter-Glo ATP luminescence viability of purified stage V gametocytes in 384-well plates, per cent inhibition versus DMSO
# Test Parameters: 48 h, 5 µM; inhibitor
Hit rate of the full screen: of about 13,000 compounds, about 3,200 (25%) showed an effect of 50% or more. This is one part of the list.
// reported % Inhibition for each item listed
Property: % Inhibition (%)

[[record]]
compound = "COc1ccc(CNCc2ccc(F)cc2)cc1-c1ccc(S(=O)(=O)NCCN2CCCC2)cc1"
measured_on = "P. falciparum stage V gametocytes"
property = "% Inhibition"
data_value = 108.8

[[record]]
compound = "O=C(NCc1cccc2ccccc12)[C@@H]1CCCN1C(=O)c1ccc(O)c(-c2ccc(Cl)c(Cl)c2)c1"
measured_on = "P. falciparum stage V gametocytes"
property = "% Inhibition"
data_value = 16.61

[[record]]
compound = "O=C(Nc1cccc(Cl)c1Cl)N1CCc2cc3nccc(N4CCN5CCC[C@H]5C4)c3cc21"
measured_on = "P. falciparum stage V gametocytes"
property = "% Inhibition"
data_value = -5.668

[[record]]
compound = "O=C(Nc1ccccc1)N(Cc1ccc(-c2cccc(CNC3CCCC3)c2)cc1)C1CCN(Cc2ccccc2)CC1"
measured_on = "P. falciparum stage V gametocytes"
property = "% Inhibition"
data_value = 107.8

[[record]]
compound = "Fc1cccc(COc2ccc(Nc3ncnc4ccc(C#C[C@H]5CCCN5)cc34)cc2Cl)c1"
measured_on = "P. falciparum stage V gametocytes"
property = "% Inhibition"
data_value = -6.979

[[record]]
compound = "O=C(Nc1ccccc1)N(Cc1cccc(-c2ccc(CNC3CCCC3)cc2)c1)C1CCN(Cc2ccccc2)CC1"
measured_on = "P. falciparum stage V gametocytes"
property = "% Inhibition"
data_value = 100.6

[[record]]
compound = "O=C(Nc1ccccc1)N(Cc1ccc(-c2ccc(CNC3CCCC3)cc2)cc1)C1CCN(Cc2ccccc2)CC1"
measured_on = "P. falciparum stage V gametocytes"
property = "% Inhibition"
data_value = 100.4

[[record]]
compound = "CCN(CCCN1CCCCC1)c1nc(C)cc(Nc2ccc(Cl)cc2)n1"
measured_on = "P. falciparum stage V gametocytes"
property = "% Inhibition"
data_value = 21.21

[[record]]
compound = "CCOc1cc(C(=O)NC2CCN(Cc3ccccc3)C2)ccc1-c1nc2ccc(Cl)cc2[nH]1 (centres unmarked)"
measured_on = "P. falciparum stage V gametocytes"
property = "% Inhibition"
data_value = -5.376

[[record]]
compound = "CC(=O)NCCNc1nccc(N2CCc3ncnc(Nc4ccc(OCc5ccccn5)c(Cl)c4)c3C2)n1"
measured_on = "P. falciparum stage V gametocytes"
property = "% Inhibition"
data_value = 3.253

[[record]]
compound = "CC(NC(C)c1cccc(Cl)c1)C(=O)Nc1cc(C(F)(F)F)ccc1N1CCOCC1 (centres unmarked)"
measured_on = "P. falciparum stage V gametocytes"
property = "% Inhibition"
data_value = -33.15

